The entries below are paired with their reported % inhibition of TNFα secretion.
Target: Recombinant human Gal3 (rhGal3) (TrueBinding, #QC200361) (human, UniProt P17931 2-250); further: test concentration or dose not given here
Assay: cell-based or functional assay
Just the number please, in %, no unit attached.

Observe how each entry below is paired with its result.
Task item: Find the recorded % inhibition of TNFα secretion belonging to 24D12.2H9 (antibody, human IgG4 S228P, kappa, V domains shown) VH: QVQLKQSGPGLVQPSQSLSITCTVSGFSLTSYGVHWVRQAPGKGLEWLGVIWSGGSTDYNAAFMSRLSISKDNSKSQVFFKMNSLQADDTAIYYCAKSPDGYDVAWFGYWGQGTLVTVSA VL: DIVMTQSHKFMSTSVGDRVSITCKASQDVRTAVAWYQQKPGQSPKLLIYWASTRHTGVPDRFTGSGSGTDFTLTLSNVQSEDLADYFCQQYSSYPWTFGGGTKLEIKR and report it.
Reply: 46.5

Task item: Find the recorded % inhibition of TNFα secretion belonging to F846C.1B2 (antibody, human IgG4 S228P, kappa, V domains shown) VH: QIQLVQSGPELKKPGETVKISCKASGYTFTNYGMNWVKQAPGKGLKWMGWINTYTGEPSYADDFKGRFAFSLETSASTAYLQINNLKNEDMATYFCARWGGYAGDYYAMDFWGQGTSVTVSS VL: NIWLTQSPSSLAVSAGEMVTMTCKSSQSVLYSSNQKNYLAWYQQKPGQSPKLLIYWASTRESGVPDRFTGSGSGTDFSLTISSVQAEDLAVYYCHQYLSSLTFGAGTKLELKR and report it.
Reply: 43.9

Task item: Find the recorded % inhibition of TNFα secretion belonging to 15F10.2D6 (antibody, mouse IgG2a, V domains shown) VH: EVQLVESGGGLVKPGGSLKLSCAASGFAFSSYAMSWVRQTPEKRLEWVATISDGGVYTYYTDHVKGRFTISRDNAEDNLYLQMSHLKSEDTAMYYCVRDGGYWGQGTTLTVSS VL: DVLMTQTPLSLPVSLGDQASISCRSSQSIVHNNGNTYLEWYLQKPGQSPKLLIYKVSNRFSGVPDRFSGSGSGTDFTLKISRVEAEDLGVYYCFQGSHVPLTFGGGTKLELKR and report it.
Reply: 73.5

Task item: Find the recorded % inhibition of TNFα secretion belonging to 847.21B11 (antibody, V domains shown) VH: QVQLKQSGPGLVAPSQSLSITCTVSGFSLTSYGVHWVRQPPGKGLEWLGIIWAGGSTNYNPALMSRLSISKDKSKSQVFLKMNSLKTDDTAMYYCARDRASLLRPGAMDYWGQGTSVTVSS VL: DIVMTQSQKFMSTSVGDRVSVTCKASQNVGINVAWYQQKPGQSPKALIYSASYRYSGVPDRFTGSGSGTDFTLTISNVQSEDLAEYFCQQYNSYPYTFGGGTKLEMK and report it.
Reply: -136

New cases:
Task item: Find the recorded % inhibition of TNFα secretion belonging to 846T.4C9 (antibody, V domains shown) VH: EVQLQQSGPELVKPGASVKMSCKASGYSFTNYIMHWVKQKPGQGLEWIGYINPYNDGTKYNEKFKGKATLTSDKSSSTAYMELSSLTSEDSAVYYCARLLFYYAMDYWGQGTSVTVSS VL: DILMTQTPSSMSVSLGDTVSITCHASQGISSNIGWLQQKPRKSFKGLIYYGTNLEDGVPSRFSGSGSGADYSLTISSLESEDFADYYCVQYDQFPWTFGGGTKLEIK and report it.
Reply: -299

Numbers sourced from patent US20250243282A1.
